# Assay: AUC (0 to infinity) in Wistar rat total plasma at 1 mg/kg, iv by HPLC-MS/MS analysis
# Format: ADME, organism-based
# Parameters: time infinity, dose 1 mg/kg, route iv
Attribute measured: AUC(0-inf) (ng·h/mL)

> print(dat)
                                 cpd.smiles    units  reading
1  CC(=O)N1Cc2ccc(OCc3c(C)nnn3-c3ccc(F)cc3)nc2C1  ng·h/mL      301

I = Cc1onc(-c2ccc(F)cc2)c1COc1ccc2c(n1)CCN(C(=O)CS(C)(=O)=O)C2
II = CC(=O)N1CCc2nc(OCc3c(C)nnn3-c3ccc(F)cc3)ccc2C1
## Input Just curious, which one has the larger AUC(0-inf) reading, I or II ? Could you answer with the label of the item you picked?
## Output I
(I: 407 ng·h/mL, II: 218 ng·h/mL)

###

# Tested on: UniProt P11712
# Sequence (P11712 whole entry): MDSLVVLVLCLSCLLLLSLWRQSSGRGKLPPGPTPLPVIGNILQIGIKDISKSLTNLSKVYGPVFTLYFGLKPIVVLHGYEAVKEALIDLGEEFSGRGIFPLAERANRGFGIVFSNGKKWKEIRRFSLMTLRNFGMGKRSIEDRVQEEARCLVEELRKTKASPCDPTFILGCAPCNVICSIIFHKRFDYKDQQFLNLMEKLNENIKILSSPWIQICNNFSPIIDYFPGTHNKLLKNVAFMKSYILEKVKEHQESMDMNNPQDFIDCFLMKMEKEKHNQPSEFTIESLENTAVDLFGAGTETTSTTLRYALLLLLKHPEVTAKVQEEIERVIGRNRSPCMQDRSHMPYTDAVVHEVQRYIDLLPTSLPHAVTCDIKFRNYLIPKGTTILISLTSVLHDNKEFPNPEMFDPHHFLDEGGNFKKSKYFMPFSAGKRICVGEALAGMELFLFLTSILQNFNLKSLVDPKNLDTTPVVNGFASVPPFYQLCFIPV
pIC50: −log10 of the molar value.
Attribute measured: pIC50

## Input Fill in the blank: the reported pIC50 of Cc1onc(-c2ccc(F)cc2)c1COc1ccc2c(n1)CCN(C(=O)CS(C)(=O)=O)C2 is ____.
## Output < 4.30

###

# Assay: Bioavailability in Wistar rat at 1 mg/kg,po or 1 mg/kg, iv by HPLC-MS/MS analysis
# Format: ADME, organism-based
# Experimental context: in vivo
Attribute measured: bioavailability (%)
Provide the reading as a plain figure in %.

## Input Fill in the blank: the reported bioavailability of Cc1onc(-c2ccc(F)cc2)c1COc1ccc2c(n1)CCN(C(=O)CS(C)(=O)=O)C2 is ____.
## Output 35.8

###

# Assay: Passive permeability in human Caco-2 cells assessed as permeability damage ratio at 10 uM by HPLC-UV analysis
# Type: ADME, cell-based
# Experimental context: caco-2, 10 µM
Attribute measured: Ratio
Give the figure only, with no unit attached.

> print(dat)
                                   compound  reading
1  CC(=O)N1Cc2ccc(OCc3c(C)nnn3-c3ccc(F)cc3)nc2C1      0.9
2  Cc1nnn(-c2ccc(F)cc2)c1COc1ccc2c(n1)CCN(C(=O)C1CCCO1)C2 (stereo not given)     0.92
3  Cc1onc(-c2ccc(F)cc2)c1COc1ccc2c(n1)CCN(C(=O)CS(C)(=O)=O)C2       29

## Input Fill in the blank: the reported Ratio of Cc1nnn(-c2ccc(F)cc2)c1COc1ccc2c(n1)CCN(C(=O)C1CC(=O)N(C)C1)C2 (stereo not given) is ____.
## Output 8.9

## Input Field entry: Cc1nnn(-c2ccc(F)cc2)c1COc1ccc2c(n1)CCN(CCS(C)(=O)=O)C2=O
## Output 3.2

###

# Tested on: GABA-A receptor; alpha-5/beta-3/gamma-2 (Homo sapiens, UniProt P18507+P28472+P31644)
# Sequence (P18507 whole entry): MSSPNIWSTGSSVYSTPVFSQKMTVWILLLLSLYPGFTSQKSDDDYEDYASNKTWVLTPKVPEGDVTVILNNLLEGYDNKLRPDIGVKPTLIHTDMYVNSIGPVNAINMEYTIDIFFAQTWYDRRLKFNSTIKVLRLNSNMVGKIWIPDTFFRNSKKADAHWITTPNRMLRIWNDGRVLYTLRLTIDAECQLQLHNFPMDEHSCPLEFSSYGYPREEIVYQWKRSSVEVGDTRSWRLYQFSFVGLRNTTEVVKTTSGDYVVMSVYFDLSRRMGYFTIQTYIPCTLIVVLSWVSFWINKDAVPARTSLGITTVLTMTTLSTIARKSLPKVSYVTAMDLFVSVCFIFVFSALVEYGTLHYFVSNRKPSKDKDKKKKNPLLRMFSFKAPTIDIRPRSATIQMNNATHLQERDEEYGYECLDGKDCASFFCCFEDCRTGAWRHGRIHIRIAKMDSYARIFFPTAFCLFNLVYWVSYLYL
# Sequence (P28472 whole entry): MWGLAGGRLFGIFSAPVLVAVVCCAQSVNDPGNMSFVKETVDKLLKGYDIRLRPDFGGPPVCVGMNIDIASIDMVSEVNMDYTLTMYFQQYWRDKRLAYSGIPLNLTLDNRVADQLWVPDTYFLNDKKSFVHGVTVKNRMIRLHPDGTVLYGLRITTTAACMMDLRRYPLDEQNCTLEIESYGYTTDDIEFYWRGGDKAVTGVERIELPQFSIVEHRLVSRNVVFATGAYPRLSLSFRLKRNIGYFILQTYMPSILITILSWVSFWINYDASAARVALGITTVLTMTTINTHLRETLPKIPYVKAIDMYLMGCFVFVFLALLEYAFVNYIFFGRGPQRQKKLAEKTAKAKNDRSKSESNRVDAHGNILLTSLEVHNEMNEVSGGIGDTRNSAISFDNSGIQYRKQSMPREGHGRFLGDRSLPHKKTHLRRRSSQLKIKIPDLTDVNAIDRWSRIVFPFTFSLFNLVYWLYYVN
# Sequence (P31644 whole entry): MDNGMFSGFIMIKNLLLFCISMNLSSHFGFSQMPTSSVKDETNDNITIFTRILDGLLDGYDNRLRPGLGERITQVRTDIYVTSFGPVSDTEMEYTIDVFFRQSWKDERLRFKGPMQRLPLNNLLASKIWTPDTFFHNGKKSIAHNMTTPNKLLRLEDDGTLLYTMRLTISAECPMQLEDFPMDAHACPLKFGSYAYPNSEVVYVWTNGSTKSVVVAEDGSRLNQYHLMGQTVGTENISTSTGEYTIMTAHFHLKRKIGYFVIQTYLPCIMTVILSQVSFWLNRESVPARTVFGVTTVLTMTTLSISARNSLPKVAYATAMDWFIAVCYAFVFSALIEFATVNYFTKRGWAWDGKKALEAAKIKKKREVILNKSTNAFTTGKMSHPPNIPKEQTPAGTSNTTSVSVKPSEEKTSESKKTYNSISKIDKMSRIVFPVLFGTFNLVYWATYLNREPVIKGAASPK
# Assay: Displacement of [3H]Ro151788 from human recombinant alpha5beta3gamma2 GABAA receptor stably expressed in HEK293 cell membrane assessed as inhibition constant by radioligand binding assay
Attribute measured: Ki (nM)

a = Cc1onc(-c2ccc(F)cc2)c1COc1ccc2c(n1)CCN(C(=O)C1CCS(=O)(=O)CC1)C2
b = Cc1onc(-c2ccc(F)cc2)c1COc1ccc2c(n1)CCN(C(=O)C1CC1)C2
c = Cc1nnn(-c2ccc(F)cc2)c1COc1ccc2c(n1)CCN(C(=O)C1CC1)C2
d = Cc1onc(-c2ccc(F)cc2)c1COc1ccc2c(n1)CCN(Cc1ccco1)C2=O
e = Cc1onc(-c2ccc(F)cc2)c1COc1ccc2c(n1)CCN(C(=O)C1CCC1)C2
## Input Rank the compounds listed above in increasing order of Ki. Give me the labels in the order the question wants.
## Output a, b, e, d, c

1 = Cc1onc(-c2ccc(F)cc2)c1COc1ccc2c(n1)CCN(C(=O)C1CCOCC1)C2
2 = Cc1onc(-c2ccc(F)cc2)c1COc1ccc2c(n1)CCN(C(=O)CS(C)(=O)=O)C2
3 = Cc1onc(-c2ccc(F)cc2)c1COc1ccc2c(n1)CCN(CC1CCCO1)C2=O (stereo not drawn)
4 = Cc1onc(-c2ccc(F)cc2)c1COc1ccc2c(n1)CCN(C)C2=O
5 = Cc1nnn(-c2ccc(F)cc2)c1COc1ccc2c(n1)CCN(C(=O)C1CC(=O)N(C)C1)C2 (stereo not drawn)
## Input Falling order of Ki, please. Give me the labels in the order the question wants.
## Output 5, 3, 1, 2, 4

A = Cc1onc(-c2ccc(F)cc2)c1COc1ccc2c(n1)CCN(C(=O)N1CCOCC1)C2
B = Cc1onc(-c2ccc(F)cc2)c1COc1ccc2c(n1)CCN(C(=O)N(C)C)C2
## Input Which of these two has the smaller recorded Ki: A or B ? Could you answer with the label of the item you picked?
## Output B
